method: Probe fluorescence ratio response to linolenic acid relative to ADIFAB2
Type: binding
testConditions: response relative to ADIFAB2
Cut-off 0.8 on DR/DR LNA: below means Satisfied, at or above means Not satisfied.

Req: Here's an entry: 102V, 72A (protein, listed as Rattus norvegicus, PEPTIDE (1)...(131) wild-type rat intestinal fatty acid binding protein) AFDGTWKVDRNENYEKFMEKMGINVVKRKLGAHDNLKLTITQEGNKFTVKESSNFRNIDVVFELGVDFAYSAADGTELTGTWTMEGNKLVGKFKRVDNGKEVIAVREISGNELIQTYTYEGVEAKRIFKKE . Is its DR/DR LNA below 0.8?
Resp: Satisfied

Req: Report whether reported DR/DR LNA is lower than 0.8 (strictly) for 60M, 72A (protein, listed as Rattus norvegicus, PEPTIDE (1)...(131) wild-type rat intestinal fatty acid binding protein) AFDGTWKVDRNENYEKFMEKMGINVVKRKLGAHDNLKLTITQEGNKFTVKESSNFRNIDMVFELGVDFAYSAADGTELTGTWTMEGNKLVGKFKRVDNGKELIAVREISGNELIQTYTYEGVEAKRIFKKE
Resp: Not satisfied

Req: Strictly below 0.8: is that where DR/DR LNA of 38K1, 72A (protein, listed as Rattus norvegicus, PEPTIDE (1)...(131) wild-type rat intestinal fatty acid binding protein) AFDGTWKVDRNENYEKFMEKMGINVVKRKLGAHDNLKKTITQEGNKFTVKESSNFRNIDVVFELGVDFAYSAADGTELTGTWTMEGNKLVGKFKRVDNGKELIAVREISGNELIQTYTYEGVEAKRIFKKE sits?
Resp: Not satisfied

Req: For 21Y, 72A (protein, listed as Rattus norvegicus, PEPTIDE (1)...(131) wild-type rat intestinal fatty acid binding protein) AFDGTWKVDRNENYEKFMEKYGINVVKRKLGAHDNLKLTITQEGNKFTVKESSNFRNIDVVFELGVDFAYSAADGTELTGTWTMEGNKLVGKFKRVDNGKELIAVREISGNELIQTYTYEGVEAKRIFKKE , is the recorded DR/DR LNA below the cut-off of 0.8?
Resp: Not satisfied

Req: Dear colleague, could you confirm whether DR/DR LNA of 34P, 72A (protein, listed as Rattus norvegicus, PEPTIDE (1)...(131) wild-type rat intestinal fatty acid binding protein) AFDGTWKVDRNENYEKFMEKMGINVVKRKLGAHPNLKLTITQEGNKFTVKESSNFRNIDVVFELGVDFAYSAADGTELTGTWTMEGNKLVGKFKRVDNGKELIAVREISGNELIQTYTYEGVEAKRIFKKE falls below 0.8? Thanks.
Resp: Satisfied

Req: Hi there! Is DR/DR LNA for 14H, 72A (protein, listed as Rattus norvegicus, PEPTIDE (1)...(131) wild-type rat intestinal fatty acid binding protein) AFDGTWKVDRNENHEKFMEKMGINVVKRKLGAHDNLKLTITQEGNKFTVKESSNFRNIDVVFELGVDFAYSAADGTELTGTWTMEGNKLVGKFKRVDNGKELIAVREISGNELIQTYTYEGVEAKRIFKKE below 0.8, do you know?
Resp: Satisfied

Cited source: patent US20060257938A1
